# Test system: MS2 coat protein
# EXPERIMENT SUMMARY: apparent KD of MS2 coat protein; higher = weaker reporter binding
# CONDITION DESCRIPTION: Eterna round: R107; input ligand: none
REPORTED PROPERTY: apparent KD of MS2 coat protein (nM)
Report the figure in nM without appending any unit label.

Past entries and their recorded results:
seq_string="UAUCCACAUGAGGAUCACCCAUGUAGGGAAGGAGCGGUGGAUGCACCAGGUAGGUCGCCUUGCUGAGGACAGCCGGUGGAUUCGU [Exclusion - Arginine A (Freestyle 27)]" unit=nM endpoint_value=31.9
seq_string="GCAUCCUAGUCGGCCGCCACUGCAUGUAGAUACCUGCUACAUGAACAUGAGGAUCACCCAUGUAGCAGGACCGGGACUAGGAUGC [(Trp1)-(MT)''-(MT)'-(Ms2)-(Trp2)_Design1]" unit=nM endpoint_value=58.8
seq_string="AUGCCGGGCCGAAGGAGCGCAAUAGAAUGACAUGAGGAUCACCCAUGUGUGUGAUGUGGGUUGCAGGUAGGUCGCGGCCCGGCAU [#12 Exclusion - Arginine B]" unit=nM endpoint_value=42.1
seq_string="AUACAUGAGGAUCACCCAUGUUACACUGAAGGAGCGACAUGUUUGUCAGGUAGGUCGCAGUGAAGUUUAAUAAAUAGUUGAUCUU [#07 Same State - Arginine A]" unit=nM endpoint_value=57
seq_string="GCCAAAGGCUACAUGAGGAUCACCCAUGUACGAGGACCGGUACGGCCGCCACUCGUACGGCCUCCUACUGGACGGGAAACCGUCG [ETA NP+V+V2 #28]" unit=nM endpoint_value=20.6
seq_string="UCAAUAAUUAGAUUGUUACAUGUAUCAGAAGGAGCGUGAGUAAUCACAGGUAGGUCGCUGUUAACAUGAGGAUCACCCAUGUUUU [JR_ExcArginiA_Sub009]" unit=nM endpoint_value=40.9

query: Provide apparent KD of MS2 coat protein value for the following sequence: UAUCCACAUGAGGAUCACCCAUGUUAGGAAGGAGCGGUGAAUGAACCAGGUAGGUCGCCUAGCUGAGGACUGUCGAUGGAUUCGU [Exclusion - Arginine A (Freestyle 17)]
result: 18.1

query: Read the entry GACCUUGCCUGAAGGAGCGAGGUAAAUAGGGUUGAGCAUACAUGAGGAUCACCCAUGUGGCCUCAGGUAGGUCGCAGGUAGGACA [Exclusion Arginine B GF30] and write its reported apparent KD of MS2 coat protein.
result: 114

query: Please give measured apparent KD of MS2 coat protein of the following entry: CCUGAUAACUGAAGGAGCGAGAAACCCUACAUGAGGAUCACCCAUGUAUACACGGGAACUUCUCAGGUAGGUCGCAGUAUGUCGG [Rienat]
result: 80.2

query: Hello, please tell me recorded apparent KD of MS2 coat protein for this one: AGCUCUGAUACGGCCGCCACUAGAUGGUGUUGUAAGAGACGCCUACAUGAGGAUCACCCAUGUCAUAGGACCGGGUAUAAAUACA [theeternabot_sameState_MS2_Trp_B_8]
result: 26.4

query: Output measured apparent KD of MS2 coat protein for this item: AUCAUGGCCAUCGAUACCAGCUACAUGAGGAUCACCCAUGUAAACGGCCCGGUGAGAUGUAGCCCUUGGCAGCGAAGGGUCAAGG [Ratimatiqu]
result: 16.5

query: For the sequence AUAUUAAUCGGAAGGAGCGGUACAUGAGGAUCACCCAUGUGCUAAGCUAGCAGAUCCCGUUACCAGGUAGGUCGCCGAGUUAUGA [Titeonra] , give its reported apparent KD of MS2 coat protein.
result: 24

query: Provide one value: measured apparent KD of MS2 coat protein of CUGCCAUGCAGAGAUACCAGUGAGCUCAGAACAUGAGGAUCACCCAUGUAGGUUGCCGAUCACCCUUGGCAGCUCUGCAUGGCAG [*$+%!]
result: 30.8
